- TGT: UniProt:Q06124
- Sequence (Q06124 whole entry): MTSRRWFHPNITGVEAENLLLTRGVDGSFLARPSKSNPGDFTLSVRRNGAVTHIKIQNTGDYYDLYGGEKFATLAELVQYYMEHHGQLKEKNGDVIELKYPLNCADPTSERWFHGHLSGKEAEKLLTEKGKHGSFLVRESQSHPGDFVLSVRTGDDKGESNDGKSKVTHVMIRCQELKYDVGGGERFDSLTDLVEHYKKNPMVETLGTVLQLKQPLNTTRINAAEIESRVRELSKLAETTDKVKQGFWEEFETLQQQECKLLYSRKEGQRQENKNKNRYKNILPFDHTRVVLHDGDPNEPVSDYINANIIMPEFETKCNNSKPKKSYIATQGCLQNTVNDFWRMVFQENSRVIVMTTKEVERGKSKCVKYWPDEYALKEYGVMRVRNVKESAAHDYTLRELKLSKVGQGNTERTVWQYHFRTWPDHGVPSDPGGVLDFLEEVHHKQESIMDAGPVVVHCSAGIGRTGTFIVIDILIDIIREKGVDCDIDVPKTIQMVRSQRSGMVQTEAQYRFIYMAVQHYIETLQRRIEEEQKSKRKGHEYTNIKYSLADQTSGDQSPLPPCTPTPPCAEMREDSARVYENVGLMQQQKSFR
- PROTOCOL_NOTES: Measurement of SHP2 protein degradation in MV-4-11 cells (western blotting)
- Format: cell-based
- Parameters: endogenous in cells; host or cells: MV-4-11
- MEASUREMENT_PARAMETERS: MV-4-11 cells, 100 nM, 24 hours
SHP2 degradation (%) 100 nM below 90% gives label 0; SHP2 degradation (%) 100 nM at or above it gives label 1.

Check if SHP2 degradation (%) 100 nM >= 90% (inclusive). Item: Cc1ncsc1-c1ccc(CNC(=O)[C@@H]2C[C@@H](O)CN2C(=O)[C@@H](NC(=O)C2(F)CC2)C(C)(C)C)c(OCCN2CCN(c3ncc(C(=O)Nc4cccc(Sc5cnc(N6CCC(C)(CN)CC6)cn5)c4Cl)cn3)CC2)c1 [Example 84] label 1

Check if SHP2 degradation (%) 100 nM >= 90% (inclusive). Item: Cc1ncsc1-c1ccc(CNC(=O)[C@@H]2C[C@@H](O)CN2C(=O)[C@@H](NC(=O)C2(F)CC2)C(C)(C)C)c(OCCN2CCN(c3ccc(C(=O)Nc4cccc(Sc5cnc(N6CCC(C)(CN)CC6)cn5)c4Cl)nc3)CC2)c1 [Example 81] label 1

Check if SHP2 degradation (%) 100 nM >= 90% (inclusive). Item: Cc1ncsc1-c1ccc(CNC(=O)[C@@H]2C[C@@H](O)CN2C(=O)[C@@H](NC(=O)C2(F)CC2)C(C)(C)C)c(OCC2CCN(C(=O)CC(=O)Nc3cccc(Sc4cnc(N5CCC(C)(CN)CC5)cn4)c3Cl)CC2)c1 [Example 31] label 1

Check if SHP2 degradation (%) 100 nM >= 90% (inclusive). Item: Cc1ncsc1-c1ccc(CNC(=O)[C@@H]2C[C@@H](O)CN2C(=O)[C@@H](NC(=O)C2(F)CC2)C(C)(C)C)c(OCCCC2CCN(CC(=O)Nc3cccc(Sc4cnc(N5CCC(C)(CN)CC5)cn4)c3Cl)CC2)c1 [Example 71] label 0

Check if SHP2 degradation (%) 100 nM >= 90% (inclusive). Item: COC(=O)[C@@H]1CN(C(=O)CC(=O)Nc2cccc(Sc3cnc(N4CCC(C)(CN)CC4)cn3)c2Cl)CCN1CCOc1cc(-c2scnc2C)ccc1CNC(=O)[C@@H]1C[C@@H](O)CN1C(=O)[C@@H](NC(=O)C1(F)CC1)C(C)(C)C [Example 66] label 1

Check if SHP2 degradation (%) 100 nM >= 90% (inclusive). Item: Cc1ncsc1-c1ccc(CNC(=O)[C@@H]2C[C@@H](O)CN2C(=O)[C@@H](NC(=O)C2(F)CC2)C(C)(C)C)c(OCCN2CCN(C(=O)CC(=O)Nc3cccc(Sc4cnc(N5CCC(C)(CN)CC5)cn4)c3Cl)C[C@@H]2C(=O)O)c1 [Example 70] label 0

Check if SHP2 degradation (%) 100 nM >= 90% (inclusive). Item: Cc1ncsc1-c1ccc(CNC(=O)[C@@H]2C[C@@H](O)CN2C(=O)[C@@H](NC(=O)C2(F)CC2)C(C)(C)C)c(OCCN2CCN(CC(=O)Nc3cccc(Sc4cnc(N5CCC(C)(CN)CC5)cn4)c3Cl)CC2)c1 [Example 72] label 0

Check if SHP2 degradation (%) 100 nM >= 90% (inclusive). Item: Cc1ncsc1-c1ccc(CNC(=O)[C@@H]2C[C@@H](O)CN2C(=O)[C@@H](NC(=O)C2(F)CC2)C(C)(C)C)c(OCCCN2CCN(C(=O)CC(=O)Nc3cccc(Sc4cnc(N5CCC(C)(CN)CC5)cn4)c3Cl)CC2)c1 [Example 60] label 1
